So I've got log10 of TC50 readings for Madin-Darby canine kidney (MDCK) cells, take a look.
readout-name: log10 of TC50 (log10 of the value in µg/mL)

| compound | target-or-test-system | observed-measurement |
| --- | --- | --- |
| CCOC(=O)c1c(CSCc2ccccc2)n(C2CC2)c2cc(Br)c(O)c(Cn3ccnc3)c12 | Madin-Darby canine kidney (MDCK) cells | 2.47 |
| CCOC(=O)c1c(CSCc2ccc(F)cc2)n(C)c2cc(Br)c(O)c(Cn3ccnc3)c12 | Madin-Darby canine kidney (MDCK) cells | 1.26 |
| CCOC(=O)c1c(CSCc2ccccc2)n(C2CC2)c2cc(Br)c(O)c(CNC(=N)N)c12 | Madin-Darby canine kidney (MDCK) cells | 1.60 |
| CCOC(=O)c1c(CSCc2ccccc2F)n(C2CC2)c2cc(Br)c(O)c(CN3CCCC3)c12.Cl | Madin-Darby canine kidney (MDCK) cells | 0.39 |
| CCOC(=O)c1c(C[S+]([O-])Cc2ccccc2)n(C2CC2)c2cc(Br)c(O)c(Cn3ccnc3)c12 (centres unmarked) | Madin-Darby canine kidney (MDCK) cells | 1.65 |
| CCOC(=O)c1c(CSc2nc3ccccc3[nH]2)n(C)c2cc(Br)c(O)c(CN(C)C)c12 | Madin-Darby canine kidney (MDCK) cells | 1.09 |
| CCOC(=O)c1c(CSCc2ccc(F)cc2)n(C)c2cc(Br)c(O)c(Cn3cncn3)c12 | Madin-Darby canine kidney (MDCK) cells | 1.65 |
| CCOC(=O)c1c(CSCc2ccccc2)n(C)c2cc(Br)c(O)c(CNC(=N)N)c12 | Madin-Darby canine kidney (MDCK) cells | 2.17 |

# credit: patent US7960427B2
